TESTED TARGET: feline CaSR (f:CaSR) (Felis catus, UniProt A0ABI7YY68)
Sequence (A0ABI7YY68 entry or part of it): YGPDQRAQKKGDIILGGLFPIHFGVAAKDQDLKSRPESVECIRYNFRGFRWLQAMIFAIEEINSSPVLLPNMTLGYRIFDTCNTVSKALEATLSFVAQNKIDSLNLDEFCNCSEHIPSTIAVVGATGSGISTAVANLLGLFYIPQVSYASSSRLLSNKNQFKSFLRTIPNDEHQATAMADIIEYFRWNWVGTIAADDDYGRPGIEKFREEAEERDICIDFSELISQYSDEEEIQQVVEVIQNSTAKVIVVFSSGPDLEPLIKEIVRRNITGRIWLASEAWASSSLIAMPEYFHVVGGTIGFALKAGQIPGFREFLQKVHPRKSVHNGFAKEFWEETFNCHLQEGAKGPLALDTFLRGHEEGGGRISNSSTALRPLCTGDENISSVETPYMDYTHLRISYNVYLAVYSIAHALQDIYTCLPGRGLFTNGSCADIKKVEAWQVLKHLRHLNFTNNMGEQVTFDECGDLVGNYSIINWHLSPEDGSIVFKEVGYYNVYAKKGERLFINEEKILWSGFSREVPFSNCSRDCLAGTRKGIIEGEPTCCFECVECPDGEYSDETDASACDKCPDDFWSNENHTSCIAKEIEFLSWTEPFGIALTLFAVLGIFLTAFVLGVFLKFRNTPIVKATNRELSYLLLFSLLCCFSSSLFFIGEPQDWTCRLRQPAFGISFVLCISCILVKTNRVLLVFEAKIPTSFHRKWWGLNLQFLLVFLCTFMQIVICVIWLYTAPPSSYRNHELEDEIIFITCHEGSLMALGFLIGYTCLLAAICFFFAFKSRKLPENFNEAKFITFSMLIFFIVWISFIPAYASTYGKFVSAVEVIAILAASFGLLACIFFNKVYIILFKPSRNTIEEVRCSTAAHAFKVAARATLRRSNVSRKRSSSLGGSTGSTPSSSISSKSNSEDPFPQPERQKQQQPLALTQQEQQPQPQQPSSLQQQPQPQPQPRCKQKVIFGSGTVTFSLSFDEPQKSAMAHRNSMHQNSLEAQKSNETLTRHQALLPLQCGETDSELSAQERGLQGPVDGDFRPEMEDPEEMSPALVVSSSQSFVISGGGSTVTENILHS
ASSAY REMARKS: cell-based
Assay type: cell-based
SETUP CONDITIONS: double-injection protocol, agonist mode and PAM mode

MOLECULE: CC(C)CCC(CCNC(C)c1ccc(Cl)cc1)c1ccc(OC(C)C)cc1 (stereo not drawn)
Activity Type: PAM

MOLECULE: NC(=O)[C@@H](N)CCC(=O)O [L-Isoglutamine]
Activity Type: Agonist

MOLECULE: [Gd] [Gadolinium]
Activity Type: Agonist

MOLECULE: CC(NCCC(Cc1ccccc1)c1ccco1)c1ccc(Cl)cc1 (stereo not drawn)
Activity Type: PAM

MOLECULE: CC(NCCC(c1ccccc1)c1ccco1)c1ccccc1 (stereo not drawn)
Activity Type: PAM

MOLECULE: COc1ccc(C(CCNC(C)c2ccc(Cl)cc2)CCC(C)C)cc1 (stereo not drawn)
Activity Type: PAM

MOLECULE: N[C@@H](CCS(=O)(=O)O)C(=O)O [L-Homocysteic acid]
Activity Type: Agonist

MOLECULE: Cc1ccc(C(CCNC(C)c2ccccc2)c2ccco2)cc1 (stereo not drawn)
Activity Type: PAM

MOLECULE: CC(C)Oc1ccc(C(CCNC(C)c2ccc(Cl)cc2)C(C)C)cc1 (stereo not drawn)
Activity Type: PAM

---

TESTED TARGET: feline CaSR (f:CaSR) (Felis catus)
ASSAY REMARKS: cell-based
Format: cell-based
SETUP CONDITIONS: double-injection protocol, agonist mode and PAM mode

MOLECULE: O=P(O)(O)CP(=O)(O)O [Methylenediphosphonic acid]
Activity Type: Agonist
//
MOLECULE: C[C@H](NC(=O)CC[C@H](N)C(=O)O)C(=O)O [γ-Glu-Ala, L-gamma-Glutamyl-L-alanine]
Activity Type: Agonist
//
MOLECULE: [Pr] [Praseodymium]
Activity Type: Agonist
//
MOLECULE: CC(NC1CCc2c(F)cc(Br)cc21)c1ccncc1 (centres unmarked)
Activity Type: PAM
//
MOLECULE: C[C@@H](NCc1cc2ccccc2[nH]1)c1cccc2ccccc12 [Calindol, reference compound]
Activity Type: PAM
//
MOLECULE: c1ccc(C2CCN(C3CCCc4ccccc43)C2)cc1 (centres unmarked)
Activity Type: PAM
//
MOLECULE: COc1ccccc1C(CCNC(C)c1ccc(Cl)cc1)c1ccc(OC(C)C)cc1 (centres unmarked)
Activity Type: PAM
//
MOLECULE: Cc1ccc(C(C)NC(C)c2cc3ccccc3[nH]2)cc1C (centres unmarked)
Activity Type: PAM
//
MOLECULE: [Sr+2] [Strontium]
Activity Type: Agonist
//
MOLECULE: N[C@@H](CS(=O)(=O)O)C(=O)O [L-Cysteic acid]
Activity Type: Agonist
//
MOLECULE: NC(CCC(=O)NC(Cc1c[nH]c2ccccc12)C(=O)O)C(=O)O [γ-D-Glu-Trp, H-gamma-D-Glu-Trp-OH]
Activity Type: Agonist

---

TESTED TARGET: feline CaSR (f:CaSR) (Felis catus, UniProt A0ABI7YY68)
ASSAY REMARKS: cell-based
Assay type: cell-based
SETUP CONDITIONS: double-injection protocol, agonist mode and PAM mode

COMPOUND: CC(C)[C@H](NC(=O)CC[C@H](N)C(=O)O)C(=O)O
Activity Type: Agonist

COMPOUND: COc1cc(C(O)(c2nc3ccccc3s2)C(F)(F)F)c(OC)cc1N (stereo not shown)
Activity Type: PAM

COMPOUND: CN[C@@H]1[C@@H](O)[C@@H](O[C@@H]2[C@@H](O)[C@H](O[C@H]3OC(CN)=CC[C@H]3N)[C@@H](N)C[C@H]2N)OC[C@]1(C)O [Sisomicin, reference compound]
Activity Type: Agonist

COMPOUND: C[C@H](NC(=O)C[C@H](N)C(=O)O)C(=O)O
Activity Type: Agonist

---

TESTED TARGET: UniProt:A0ABI7YY68
ASSAY REMARKS: cell-based
Format: cell-based
SETUP CONDITIONS: double-injection protocol, agonist mode and PAM mode

COMPOUND: CC(C)C[C@H](NC(=O)CC[C@H](N)C(=O)O)C(=O)O
Activity Type: Agonist

COMPOUND: C[Se]C[C@H](N)C(=O)O
Activity Type: Agonist

COMPOUND: NC(=O)CC[C@H](NC(=O)CC[C@H](N)C(=O)O)C(=O)O
Activity Type: Agonist

COMPOUND: CC(NCCC(Cc1ccccc1)c1ccco1)c1ccccc1 (centres unmarked)
Activity Type: PAM

COMPOUND: CC(C)Oc1ccc(C(CCNC(C)c2ccc(Cl)cc2)c2ccccc2)cc1 (centres unmarked)
Activity Type: PAM

COMPOUND: N[C@@H](CCC(=O)NCC(=O)O)C(=O)O
Activity Type: Agonist

COMPOUND: NC[C@H]1O[C@H](O[C@H]2[C@H](O[C@@H]3O[C@H](CO)[C@@H](O)[C@H]3O)[C@@H](O)[C@H](N)C[C@@H]2N)[C@H](N)[C@@H](O)[C@@H]1O [Ribostamycin, reference compound]
Activity Type: Agonist

COMPOUND: [Ca]
Activity Type: Agonist

COMPOUND: CC(NCCC(c1ccccc1)C1CCOC(C)(C)C1)c1ccccc1 (centres unmarked)
Activity Type: PAM

COMPOUND: CC(=O)N1C=Cc2ccccc2C1CC(=O)NC(C)c1cccc(Br)c1 (centres unmarked)
Activity Type: PAM

COMPOUND: Cc1ccc(C(CCNC(C)c2cccs2)c2ccco2)cc1 (centres unmarked)
Activity Type: PAM

---

TESTED TARGET: UniProtKB A0ABI7YY68
ASSAY REMARKS: cell-based
Format: cell-based
SETUP CONDITIONS: double-injection protocol, agonist mode and PAM mode

MOLECULE: Cc1ccc(C2(CCNC(C)c3ccc(Cl)cc3)CCOC(C)(C)C2)cc1 (stereo not shown)
Activity Type: PAM
//
MOLECULE: COc1ccc(C(CCNC(C)c2ccc(Cl)cc2)C(C)C)cc1 (stereo not shown)
Activity Type: PAM
//
MOLECULE: Cc1ccc(C(C)(O)c2nc3ccccc3s2)c(C)c1 (stereo not shown)
Activity Type: PAM
//
MOLECULE: NC(CC(F)C(=O)O)C(=O)O (racemic) [4-Fluoro-DL-glutamic acid]
Activity Type: Agonist
//
MOLECULE: N[C@@H](CP(=O)(O)O)C(=O)O (stereo in doubt) [2-Amino-3-phosphonopropionic acid]
Activity Type: Agonist
//
MOLECULE: N[C@@H](CCC(=O)N[C@@H](CSCCO)C(=O)NCC(=O)O)C(=O)O [S-(2-Hydroxyethyl)glutathione]
Activity Type: Agonist
//
MOLECULE: [Mg] [Magnesium]
Activity Type: Agonist
//
MOLECULE: [Ba] [Barium]
Activity Type: Agonist
//
MOLECULE: COC(=O)C[C@H](N)C(=O)O [L-Aspartic acid beta-methyl ester]
Activity Type: Agonist
//
MOLECULE: N[C@@H](C[C@H](O)C(=O)O)C(=O)O [2S,4S-γ-Hydroxy-L-glutamic acid]
Activity Type: Agonist

---

TESTED TARGET: feline CaSR (f:CaSR) (Felis catus)
ASSAY REMARKS: cell-based
Type: cell-based
SETUP CONDITIONS: double-injection protocol, agonist mode and PAM mode
READOUT: Activity Type

COMPOUND: CSC[C@H](NC(=O)CC[C@H](N)C(=O)O)C(=O)NCC(=O)O
TESTED TARGET: feline CaSR (f:CaSR) (Felis catus)
READOUT: Activity Type
RECORDED MEASUREMENT: Agonist
--
COMPOUND: N[C@@H](CCC(=O)N[C@@H](CCC(=O)O)C(=O)O)C(=O)O
TESTED TARGET: feline CaSR (f:CaSR) (Felis catus)
READOUT: Activity Type
RECORDED MEASUREMENT: Agonist
--
COMPOUND: NCCCCNCCCN
TESTED TARGET: feline CaSR (f:CaSR) (Felis catus)
READOUT: Activity Type
RECORDED MEASUREMENT: Agonist
--
COMPOUND: COC(=O)C(NC1CCc2c(F)cccc21)c1cccc(C#N)c1 (centres unmarked)
TESTED TARGET: feline CaSR (f:CaSR) (Felis catus)
READOUT: Activity Type
RECORDED MEASUREMENT: PAM
--
COMPOUND: COc1ccccc1C(CCNC(C)c1ccc(Cl)cc1)c1ccco1 (centres unmarked)
TESTED TARGET: feline CaSR (f:CaSR) (Felis catus)
READOUT: Activity Type
RECORDED MEASUREMENT: PAM

---

TESTED TARGET: UniProt:A0ABI7YY68
ASSAY REMARKS: cell-based
Assay type: cell-based
SETUP CONDITIONS: PAM mode, CaCl2 injected at EC20; read-out: EC50 (PAM)

COMPOUND: CC(C)CCC(CCNC(C)c1ccc(Cl)cc1)c1ccc(OC(C)C)cc1 (centres unmarked)
EC50 [µM]: 172
//
COMPOUND: CC(NCC1CCCN(C)C1c1cccs1)c1cc(Cl)c(N)c(Cl)c1 (centres unmarked)
EC50 [µM]: 8.68
//
COMPOUND: Cc1ccc(C(CCNC(C)c2ccccc2)c2ccco2)cc1 (centres unmarked)
EC50 [µM]: 0.752
//
COMPOUND: CC(=O)N1C=Cc2ccccc2C1CC(=O)NC(C)c1cccc(Br)c1 (centres unmarked)
EC50 [µM]: 12.1
//
COMPOUND: COc1ccc(C(CCNC(C)c2ccc(Cl)cc2)C(C)C)cc1 (centres unmarked)
EC50 [µM]: 1.44
//
COMPOUND: CC(NCCC(Cc1ccccc1)c1ccco1)c1ccccc1 (centres unmarked)
EC50 [µM]: 0.673
//
COMPOUND: CC(C)Oc1ccc(C(CCNC(C)c2ccc(Cl)cc2)c2ccccc2)cc1 (centres unmarked)
EC50 [µM]: 4.49
//
COMPOUND: COC(=O)C(NC1CCc2c(F)cccc21)c1cccc(C#N)c1 (centres unmarked)
EC50 [µM]: 58.9
//
COMPOUND: CC(NCCC(Cc1ccccc1)c1ccco1)c1ccc(Cl)cc1 (centres unmarked)
EC50 [µM]: 4
//
COMPOUND: CC(C)Oc1ccc(C(CCNC(C)c2ccc(Cl)cc2)C(C)C)cc1 (centres unmarked)
EC50 [µM]: 135
//
COMPOUND: CC(NCCC(c1ccccc1)C1CCOC(C)(C)C1)c1ccccc1 (centres unmarked)
EC50 [µM]: 0.988
//
COMPOUND: COc1ccccc1C(CCNC(C)c1ccc(Cl)cc1)c1ccc(OC(C)C)cc1 (centres unmarked)
EC50 [µM]: 0.714
//
COMPOUND: Cc1ccc(C(C)(O)c2nc3ccccc3s2)c(C)c1 (centres unmarked)
EC50 [µM]: 0.0511
//
COMPOUND: COc1ccc(C(CCNC(C)c2ccc(Cl)cc2)CCC(C)C)cc1 (centres unmarked)
EC50 [µM]: 115
//
COMPOUND: COc1cc(C(O)(c2nc3ccccc3s2)C(F)(F)F)c(OC)cc1N (centres unmarked)
EC50 [µM]: 2.42
//
COMPOUND: COc1ccccc1C(CCNC(C)c1ccc(Cl)cc1)c1ccco1 (centres unmarked)
EC50 [µM]: 1.41
//
COMPOUND: CC(NCC1Cc2ccccc2O1)c1ccc2ccccc2n1 (centres unmarked)
EC50 [µM]: 9.01
//
COMPOUND: CC(NCCC(c1ccccc1)c1ccco1)c1ccccc1 (centres unmarked)
EC50 [µM]: 0.458
//
COMPOUND: Cc1ccc(C(CCNC(C)c2cccs2)c2ccco2)cc1 (centres unmarked)
EC50 [µM]: 2.25
//
COMPOUND: Cc1ccc(C(CCNC(C)c2ccc(Cl)cc2)c2ccco2)cc1 (centres unmarked)
EC50 [µM]: 3.68

Source: patent US20190274334A1
